Measured log10 of solubility kinetic at 20 h, listed per entry for reference.
test: Kinetic solubility of the compound in phosphate buffered saline at pH 6.5 after 20 hrs by shake flask method; format: physicochemical; settings: read-out: Kinetic_solubility
Use the decimal logarithm of solubility kinetic at 20 h (µM).

> print(dat)
                                test.smiles                   measured.attribute  numeric.value
1  FC(F)(F)c1ccc(Nc2cc3[nH]c(C4CCOCC4)nc3cn2)nc1  log10 of solubility kinetic at 20 h           2.19

q: Find the recorded log10 of solubility kinetic at 20 h belonging to `Fc1ccc(Nc2cc3[nH]c(C4CCC(F)(F)CC4)nc3cn2)nc1` and report it.
a: 2.23

q: Find the recorded log10 of solubility kinetic at 20 h belonging to `O=C(O)c1ccc(Nc2cc3[nH]c(-c4cccc(C(F)(F)F)c4)nc3cn2)nc1` and report it.
a: 0.78

q: Find the recorded log10 of solubility kinetic at 20 h belonging to `FC(F)(F)c1ccc(Nc2cc3[nH]c(C4CCCC4)nc3cn2)nc1` and report it.
a: 2.16

q: Find the recorded log10 of solubility kinetic at 20 h belonging to `O=C(c1ccc(Nc2cc3[nH]c(-c4ccc(C(F)(F)F)nc4)nc3cn2)nc1)N1CCOCC1` and report it.
a: 1.52

---

Measured Tmax, listed per entry for reference.
experiment: Tmax in NOD-scid IL-2Rgamma-null mouse model engrafted with Plasmodium falciparum 3D7 infected human erythrocytes at 50 mg/kg administered via oral gavage measured over 23 hrs post first dose by LC-MS/MS method; assay type: ADME, organism-based; details: in vivo

q: Find the recorded Tmax belonging to `Fc1ccc(Nc2cc3[nH]c(-c4ccc(F)c(C(F)(F)F)c4)nc3cn2)nc1` and report it.
a: 2 to 4 h

q: Find the recorded Tmax belonging to `FC1(F)CCC(c2nc3cnc(Nc4ccc(C(F)(F)F)cn4)cc3[nH]2)CC1` and report it.
a: 0.25 to 2 h

---

experiment: Cmax in Sprague-Dawley rat at 15 mg/kg administered via oral gavage as bolus dose by LC-MS/MS method; assay type: ADME, organism-based; design: dose 15 mg/kg, route oral; conditions: in vivo
measured_attribute: Cmax (nM)
Expressed in nM, but write only the number.

q: Find the recorded Cmax belonging to `FC1(F)CCC(c2nc3cnc(Nc4ccc(C(F)(F)F)cn4)cc3[nH]2)CC1` and report it.
a: 1200

---

assay: Cmax in Sprague-Dawley rat at 3 mg/kg, iv administered as 2 mins of infusion by LC-MS/MS method; assay type: ADME, organism-based; design: dose 3 mg/kg, route intravenous; conditions: in vivo
measured_attribute: Cmax
Number plus unit, in that order.

q: Find the recorded Cmax belonging to `FC1(F)CCC(c2nc3cnc(Nc4ccc(C(F)(F)F)cn4)cc3[nH]2)CC1` and report it.
a: 2600 nM

---

experiment: Oral bioavailability in BALB/c mouse at 20 mg/kg administered via gavage as bolus dose by LC-MS/MS method; type: ADME, organism-based; conditions: in vivo
measured_attribute: bioavailability (%)
Expressed in %, but write only the number.

q: Find the recorded bioavailability belonging to `FC1(F)CCC(c2nc3cnc(Nc4ccc(C(F)(F)F)cn4)cc3[nH]2)CC1` and report it.
a: 51

---

Measured Cmax, listed per entry for reference.
assay: Cmax in NOD-scid IL-2Rgamma-null mouse model engrafted with Plasmodium falciparum 3D7 infected human erythrocytes at 25 mg/kg administered via oral gavage measured over 23 hrs post first dose by LC-MS/MS method; assay type: ADME, organism-based; set-up: dose 25 mg/kg, route oral; details: in vivo
Expressed in ng/mL, but write only the number.

> print(dat)
                                test.smiles  measured.attribute  numeric.value
1  Fc1ccc(Nc2cc3[nH]c(-c4ccc(F)c(C(F)(F)F)c4)nc3cn2)nc1                Cmax           3090

Next up:
q: Find the recorded Cmax belonging to `FC1(F)CCC(c2nc3cnc(Nc4ccc(C(F)(F)F)cn4)cc3[nH]2)CC1` and report it.
a: 3340

---

assay: Cmax in NOD-scid IL-2Rgamma-null mouse model engrafted with Plasmodium falciparum 3D7 infected human erythrocytes at 50 mg/kg administered via oral gavage measured over 23 hrs post first dose by LC-MS/MS method; type: ADME, organism-based; parameters: dose 50 mg/kg, route oral; details: in vivo
measured_attribute: Cmax

> print(dat)
                                test.smiles      result
1  Fc1ccc(Nc2cc3[nH]c(-c4ccc(F)c(C(F)(F)F)c4)nc3cn2)nc1  4860 ng/mL

Next up:
q: Find the recorded Cmax belonging to `FC1(F)CCC(c2nc3cnc(Nc4ccc(C(F)(F)F)cn4)cc3[nH]2)CC1` and report it.
a: 8650 ng/mL

---

assay: AUC (0 to 23 hrs) in NOD-scid IL-2Rgamma-null mouse model engrafted with Plasmodium falciparum 3D7 infected human erythrocytes at 10 mg/kg administered via oral gavage by LC-MS/MS method; type: ADME, organism-based; parameters: dose 10 mg/kg, time < 23 hr, route oral; details: in vivo
Measured AUC(0-t) at 23 h, listed per entry for reference.
Expressed in ng·h/mL, but write only the number.

> print(dat)
                                test.smiles  measured.attribute  display.unit  numeric.value
1  FC1(F)CCC(c2nc3cnc(Nc4ccc(C(F)(F)F)cn4)cc3[nH]2)CC1    AUC(0-t) at 23 h       ng·h/mL           8670

q: Find the recorded AUC(0-t) at 23 h belonging to `Fc1ccc(Nc2cc3[nH]c(-c4ccc(F)c(C(F)(F)F)c4)nc3cn2)nc1` and report it.
a: 16900

---

experiment: Cmax in BALB/c mouse at 10 mg/kg administered via oral gavage as bolus dose by LC-MS/MS method; type: ADME, organism-based; set-up: dose 10 mg/kg, route oral; conditions: in vivo
measured_attribute: Cmax (µM)
Expressed in µM, but write only the number.

q: Find the recorded Cmax belonging to `Fc1ccc(Nc2cc3[nH]c(-c4ccc(F)c(C(F)(F)F)c4)nc3cn2)nc1` and report it.
a: 4

---

Measured solubility kinetic at 20 h, listed per entry for reference.
experiment: Kinetic solubility of the compound in phosphate buffered saline at pH 6.5 after 20 hrs by shake flask method; format: physicochemical; details: read-out: Kinetic_solubility

Solved cases below.
> print(dat)
                                    molecule  result
 1  O=C(O)c1ccc(Nc2cc3[nH]c(-c4ccc(C(F)(F)F)nc4)nc3cn2)nc1  < 5 µM
 2  O=C(O)c1ccc(Nc2cc3[nH]c(-c4ccc(F)c(F)c4)nc3cn2)nc1    7 µM
 3  Fc1ccc(-c2nc3cnc(Nc4cc(C(F)(F)F)ccn4)cc3[nH]2)cc1F  < 5 µM
 4  CC1(c2nc3cnc(Nc4ccc(C(F)(F)F)cn4)cc3[nH]2)CC1  188 µM
 5  CCOC(=O)c1ccc(Nc2cc3[nH]c(-c4ccc(C(F)(F)F)nc4)nc3cn2)nc1  < 5 µM
 6  FC(F)(F)c1cccc(-c2nc3cnc(Nc4ccc(N5CCOCC5)cn4)cc3[nH]2)c1  < 5 µM
 7  Fc1ccc(-c2nc3cnc(Nc4ccccn4)cc3[nH]2)cc1C(F)(F)F  < 5 µM
 8  O=C(NC1CC1)c1ccc(Nc2cc3[nH]c(-c4ccc(C(F)(F)F)nc4)nc3cn2)nc1  < 5 µM
 9  FC(F)(F)c1cccc(-c2nc3cnc(Nc4cnccn4)cc3[nH]2)c1  < 5 µM
10  O=C(O)c1ccnc(Nc2cc3[nH]c(-c4cccc(C(F)(F)F)c4)nc3cn2)c1  < 5 µM

q: Find the recorded solubility kinetic at 20 h belonging to FC(F)(F)c1ccc(Nc2cc3[nH]c(C4CCOC4)nc3cn2)nc1 (stereo unspecified) and report it.
a: 166 µM

---

assay: Kinetic solubility of the compound in HCl at pH 2 after 20 hrs by shake flask method; assay type: physicochemical; conditions: read-out: Kinetic_solubility
Measured solubility kinetic at 20 h, listed per entry for reference.
Expressed in µM, but write only the number.

> print(dat)
                                   molecule  display.unit  numeric.value
1  Fc1ccc(Nc2cc3[nH]c(C4CCC(F)(F)CC4)nc3cn2)nc1            µM            200
2  FC1(F)CC(c2nc3cnc(Nc4ccc(C(F)(F)F)cn4)cc3[nH]2)C1            µM            181
3  FC(F)(F)c1ccc(Nc2cc3[nH]c(C4CC4)nc3cn2)nc1            µM            198

q: Find the recorded solubility kinetic at 20 h belonging to `FC(F)(F)c1cccc(-c2nc3cnc(Nc4ncccn4)cc3[nH]2)c1` and report it.
a: 155

q: Find the recorded solubility kinetic at 20 h belonging to `FC1(F)CCC(c2nc3cnc(Nc4ccc(C(F)(F)F)cn4)cc3[nH]2)CC1` and report it.
a: 199

q: Find the recorded solubility kinetic at 20 h belonging to `CCOC(=O)c1ccc(Nc2cc3[nH]c(-c4ccc(C(F)(F)F)nc4)nc3cn2)nc1` and report it.
a: 164

q: Find the recorded solubility kinetic at 20 h belonging to `COc1cccc(Nc2cc3[nH]c(-c4cccc(C(F)(F)F)c4)nc3cn2)n1` and report it.
a: 85
